# Tested on: Escherichia coli TOP10
# method: shrunken log2 fold change of peptide-encoding DNA abundance (4.5 h post-induction vs induction); higher = less antimicrobial activity (less host growth inhibition)
# test-parameters: time post-induction: 4.5 h; library: site-saturation at positions 5, 18, 19, 20
Measured shrunken log2 fold change by item
// no unit, no text: just the number

# seq-text, shrunken log2 fold change
records = [
    ("RRIRSRPPRLPRPRPRPDHVPRP", -0.0207),
    ("RRIRMRPPRLPRPRPRPYFDPRP", -1.09),
    ("RRIRCRPPRLPRPRPRPWIRPRP", -0.374),
]

What shrunken log2 fold change value was documented for this sequence, RRIRLRPPRLPRPRPRPGNVPRP ?
0.0636

Could you do the same for RRIRPRPPRLPRPRPRPMIDPRP , please?
-0.16

Could you do the same for RRIRDRPPRLPRPRPRPSHGPRP , please?
-0.0107

Could you do the same for RRIRIRPPRLPRPRPRPDTMPRP , please?
-0.272

Could you do the same for RRIRQRPPRLPRPRPRPRWKPRP , please?
0.552

Could you do the same for RRIRPRPPRLPRPRPRPLHCPRP , please?
-0.382

Could you do the same for RRIRKRPPRLPRPRPRPLTRPRP , please?
0.31

Could you do the same for RRIRDRPPRLPRPRPRPAKVPRP , please?
0.114

Could you do the same for RRIRWRPPRLPRPRPRPADQPRP , please?
0.0591

Could you do the same for RRIRLRPPRLPRPRPRPLGRPRP , please?
0.0726

Could you do the same for RRIRHRPPRLPRPRPRPRRRPRP , please?
0.0874

Could you do the same for RRIRPRPPRLPRPRPRPNTFPRP , please?
-0.0232

Could you do the same for RRIRSRPPRLPRPRPRPMGGPRP , please?
0.334

Could you do the same for RRIRIRPPRLPRPRPRPMWNPRP , please?
-0.472

Could you do the same for RRIRARPPRLPRPRPRPHMKPRP , please?
-0.188

Could you do the same for RRIRTRPPRLPRPRPRPQNMPRP , please?
-0.654

Could you do the same for RRIRERPPRLPRPRPRPSKAPRP , please?
-0.129

Could you do the same for RRIRDRPPRLPRPRPRPIFQPRP , please?
0.242

Could you do the same for RRIRWRPPRLPRPRPRPCTKPRP , please?
0.311

Could you do the same for RRIRVRPPRLPRPRPRPNNMPRP , please?
-0.537

Could you do the same for RRIRTRPPRLPRPRPRPQLTPRP , please?
-0.0274

Could you do the same for RRIRGRPPRLPRPRPRPECLPRP , please?
0.685

* * *

# Test system: Escherichia coli TOP10;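 further: peptides expressed intracellularly from a pBAD plasmid library in pooled LB shake-flask culture, induced with 0.3% L-arabinose, DNA abundance read by NGS, three biological replicates, DESeq2 with apeglm shrinkage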
# method: shrunken log2 fold change of peptide-encoding DNA abundance (4.5 h post-induction vs induction); higher = less antimicrobial activity (less host growth inhibition)
# test-parameters: time post-induction: 4.5 h; library: site-saturation at positions 5, 18, 19, 20
quantity-name: shrunken log2 fold change
// no unit, no text: just the number

Observe how each entry below is paired with its result.
# seq-text, shrunken log2 fold change
data = [
    ("RRIRRRPPRLPRPRPRPTELPRP", 0.42),
    ("RRIRARPPRLPRPRPRPHRKPRP", -0.000548),
    ("RRIRMRPPRLPRPRPRPKYGPRP", 0.0382),
]

What shrunken log2 fold change value was documented for this sequence, RRIRVRPPRLPRPRPRPRVSPRP ?
0.205

Could you do the same for RRIRFRPPRLPRPRPRPYLSPRP , please?
-1.86

Could you do the same for RRIRLRPPRLPRPRPRPCHVPRP , please?
-0.412

Could you do the same for RRIRQRPPRLPRPRPRPQDIPRP , please?
0.0203

Could you do the same for RRIRMRPPRLPRPRPRPVQPPRP , please?
0.229

Could you do the same for RRIRGRPPRLPRPRPRPAKPPRP , please?
0.82

Could you do the same for RRIRNRPPRLPRPRPRPCTPPRP , please?
-0.3

Could you do the same for RRIRWRPPRLPRPRPRPFLVPRP , please?
-0.293

Could you do the same for RRIRQRPPRLPRPRPRPSMPPRP , please?
-0.0542

Could you do the same for RRIRSRPPRLPRPRPRPLPIPRP , please?
0.0503

Could you do the same for RRIRGRPPRLPRPRPRPVTCPRP , please?
0.146

Could you do the same for RRIRIRPPRLPRPRPRPQFWPRP , please?
0.133

Could you do the same for RRIRLRPPRLPRPRPRPICPPRP , please?
0.00212

Could you do the same for RRIRRRPPRLPRPRPRPGHHPRP , please?
-0.139

Could you do the same for RRIRPRPPRLPRPRPRPRAFPRP , please?
0.32

Could you do the same for RRIRERPPRLPRPRPRPQDKPRP , please?
-0.0918

Could you do the same for RRIRGRPPRLPRPRPRPWTPPRP , please?
0.75

Could you do the same for RRIRQRPPRLPRPRPRPGMTPRP , please?
0.00903

Could you do the same for RRIRNRPPRLPRPRPRPSDGPRP , please?
0.0337
